tested-system: Recombinant human NK3 (hNK3) receptor (Homo sapiens, UniProt P29371)
Construct: expressed in transfected cells
Sequence (P29371 whole entry): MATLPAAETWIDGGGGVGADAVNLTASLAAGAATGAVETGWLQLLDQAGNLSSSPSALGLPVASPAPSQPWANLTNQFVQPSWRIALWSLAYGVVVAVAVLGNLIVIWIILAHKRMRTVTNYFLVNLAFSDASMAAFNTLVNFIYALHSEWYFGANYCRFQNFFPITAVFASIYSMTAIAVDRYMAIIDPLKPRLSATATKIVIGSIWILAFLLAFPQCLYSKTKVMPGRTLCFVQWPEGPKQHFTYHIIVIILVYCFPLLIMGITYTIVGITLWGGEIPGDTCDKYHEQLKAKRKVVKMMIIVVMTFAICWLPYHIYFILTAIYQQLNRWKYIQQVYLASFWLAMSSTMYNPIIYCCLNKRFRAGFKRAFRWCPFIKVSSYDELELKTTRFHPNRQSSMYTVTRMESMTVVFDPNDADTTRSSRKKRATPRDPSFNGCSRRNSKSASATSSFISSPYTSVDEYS
assay-protocol: NK3 receptor binding, [3H]SR142801 displacement, membrane preparations
assay-conditions: second value of the cell pKi NK1/NK3; hNK3 receptor, [3H]SR142801
pKi: −log10 of the molar value.
measure: pKi

molecule	pKi
CN(C(=O)C(C)(C)c1cc(C(F)(F)F)cc(C(F)(F)F)c1)c1cnc(N2CC[C@H](O)C[C@@H]2CO)cc1-c1ccccc1Cl (racemic) [Example 189]	8.40
Cc1ccccc1-c1cc(N(CCO)CCO)ncc1N(C)C(=O)C(C)(C)c1cc(C(F)(F)F)cc(C(F)(F)F)c1 [Example 83]	8.96
CN(C(=O)C(C)(C)c1cc(C(F)(F)F)cc(C(F)(F)F)c1)c1cnc(N[C@H]2CC[C@H](O)CC2)cc1-c1ccccc1Cl [Example 60]	8.10
CN(C(=O)C(C)(C)c1cc(C(F)(F)F)cc(C(F)(F)F)c1)c1cnc(N2CCCCC2CO)cc1-c1ccccc1Cl (racemic) [Example 141]	7.73

P. CN(C(=O)C(C)(C)c1cc(Cl)cc(Cl)c1)c1cnc(NCCO)cc1-c1ccccc1Cl [Example 1]
Q. Cc1cc(F)ccc1-c1cc(N2C[C@H](O)C[C@H]2CO)ncc1N(C)C(=O)C(C)(C)c1cc(Cl)cc(OC(F)F)c1 [Example 39]
Name the one with the greater pKi value, either P or Q as given. Write down the label attached to your selection. Q
(Q: 8.89, P: 8.05)

1. CN(C(=O)C(C)(C)c1cc(C(F)(F)F)cc(C(F)(F)F)c1)c1cnc(N2C[C@H](O)C[C@H]2CO)cc1-c1ccc(F)cc1 [Example 202]
2. Cc1ccccc1-c1cc(N2CC[C@@H](O)[C@@H](CO)C2)ncc1N(C)C(=O)C(C)(C)c1cc(C(F)(F)F)cc(C(F)(F)F)c1 (racemic) [Example 192]
3. Cc1cc(F)ccc1-c1cc(N[C@H]2CC[C@H](O)CC2)ncc1N(C)C(=O)C(C)(C)c1cc(C(F)(F)F)cc(C(F)(F)F)c1 [Example 92]
4. C[C@H](O)CNc1cc(-c2ccccc2Br)c(N(C)C(=O)C(C)(C)c2cc(C(F)(F)F)cc(C(F)(F)F)c2)cn1 [Example 131]
Your job: order these 4 records by pKi, ascending. Provide the ranking by listing each label in its place in the requested order. 2, 3, 1, 4
(2: 7.46, 3: 7.67, 1: 8.13, 4: 8.37)

a. Cc1cc(F)ccc1-c1cc(N2[C@@H](CO)CC[C@@H]2CO)ncc1N(C)C(=O)C(C)(C)c1cc(C(F)(F)F)cc(C(F)(F)F)c1 [Example 199]
b. CN(C(=O)C(C)(C)c1cc(C(F)(F)F)cc(C(F)(F)F)c1)c1cnc(N2C[C@H](O)C[C@H]2CO)cc1-c1ccc(Cl)c(Cl)c1 [Example 135]
c. CN(C(=O)C(C)(C)c1cc(C(F)(F)F)cc(C(F)(F)F)c1)c1cnc(N2C[C@H](O)C[C@H]2CO)cc1-c1ccc(Cl)cc1Cl [Example 136]
d. CN(C(=O)C(C)(C)c1cc(C(F)(F)F)cc(C(F)(F)F)c1)c1cnc(NCC(O)CO)cc1-c1ccccc1Cl (racemic) [Example 78]
e. CN(C(=O)C(C)(C)c1cc(C(F)(F)F)cc(C(F)(F)F)c1)c1cnc(N2C[C@H](O)C[C@@H](O)C2)cc1-c1ccccc1Cl [Example 180]
Order these by pKi, descending, and give the full ranking. Answer by naming the labels in the order asked. c, e, d, a, b
(c: 8.84, e: 8.49, d: 8.21, a: 7.81, b: 7.50)
